Measured ΔG^0, listed per entry for reference.
# tested-on: pancreatic lipase (PL) (Sus scrofa)
# Construct: lipase (porcine pancreas); purchased Shanghai Yuanye Co., Ltd., Shanghai, China; host or cells: porcine pancreas
# Sequence (P00591 whole entry): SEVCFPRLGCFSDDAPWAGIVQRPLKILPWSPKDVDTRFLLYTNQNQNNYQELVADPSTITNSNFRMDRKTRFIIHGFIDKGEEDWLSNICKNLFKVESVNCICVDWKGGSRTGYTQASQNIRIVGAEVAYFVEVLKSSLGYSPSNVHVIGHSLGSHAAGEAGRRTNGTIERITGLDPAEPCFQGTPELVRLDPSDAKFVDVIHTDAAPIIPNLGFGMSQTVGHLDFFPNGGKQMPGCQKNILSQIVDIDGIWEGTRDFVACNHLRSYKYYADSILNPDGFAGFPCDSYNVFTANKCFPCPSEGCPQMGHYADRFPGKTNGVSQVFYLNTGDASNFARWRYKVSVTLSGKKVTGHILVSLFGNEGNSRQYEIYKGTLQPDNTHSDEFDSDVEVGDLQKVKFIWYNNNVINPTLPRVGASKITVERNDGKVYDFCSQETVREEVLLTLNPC
# procedure-summary: Fluorescence quenching and binding interaction with PL (Stern-Volmer, double logarithmic, Van't Hoff)
# Design: species or system porcine
# assay-context: T 298 K
Hi! Could you send only the number? It should be in kcal/mol, unit omitted.

Record excerpt, results attached:
>  <molecule>
Oc1ccc(-c2c3nc(c(-c4ccc(O)cc4)c4ccc([nH]4)c(-c4ccc(O)cc4)c4nc(c(-c5ccc(O)cc5)c5ccc2[nH]5)C=C4)C=C3)cc1 [THPP]

>  <tested-on>
pancreatic lipase (PL) (Sus scrofa)

>  <unit-tag>
kcal/mol

>  <quantitative-readout>
-8.91

$$$$
>  <molecule>
O=C(O)c1ccc(-c2c3nc(c(-c4ccc(C(=O)O)cc4)c4ccc([nH]4)c(-c4ccc(C(=O)O)cc4)c4nc(c(-c5ccc(C(=O)O)cc5)c5ccc2[nH]5)C=C4)C=C3)cc1 [TCPP, meso-Tetra (4-carboxyphenyl) porphine]

>  <tested-on>
pancreatic lipase (PL) (Sus scrofa)

>  <unit-tag>
kcal/mol

>  <quantitative-readout>
-8.076

$$$$
>  <molecule>
O=C([O-])c1ccc(C2=C3C=CC(=N3)C(c3ccc(C(=O)[O-])cc3)=C3C=CC(=N3)C(=c3ccc(=C([O-])[O-])cc3)c3ccc([n-]3)C(c3ccc(C(=O)[O-])cc3)=C3C=CC2=N3)cc1.[67Cu+2].[H+].[H+].[H+].[H+] [Cu-TCPP]

>  <tested-on>
pancreatic lipase (PL) (Sus scrofa)

>  <unit-tag>
kcal/mol

>  <quantitative-readout>
-5.631

$$$$

Continue with the molecule presented below.
Query Nc1ccc(-c2c3nc(c(-c4ccc(N)cc4)c4ccc([nH]4)c(-c4ccc(N)cc4)c4nc(c(-c5ccc(N)cc5)c5ccc2[nH]5)C=C4)C=C3)cc1 [TAPP] yields ΔG^0 of -7.118

Data credit: paper PMC12251151
